tested on: renal cancer (A498); conditions: read-out: potency (at the LC50 level)
experimental-readout: CC50 (nM)

In [3]: df
Out[3]:
                                   compound  experimental_readout  observed_measurement
0  COc1cc2c(cc1OCCCC(=O)Nc1ccc3ccc4cccc5ccc1c3c45)N=C[C@@H]1CCCN1C2=O [Ve]                  CC50                   100

The values you see were collected from patent EP1608650B1.
